PROCEDURE DETAILS: Pharmacokinetics in female BALB/c nude mice bearing A375 xenografts, 1 day dosing (PK and PD study): plasma, tumor and brain concentrations, AUC
Format: in vivo
PROTOCOL CONDITIONS: mouse, plasma, po, 6 mg/kg, 6 mg/kg p.o. QD × 1 day; 2 h; read-out: Mean Concentration in Plasma ± SEM
From the text: The concentrations of Dabrafenib, Compound 26 and Compound 141 in the treatment of female BALB/c nude mice bearing A375 xenografts are shown in Table 62-Table 72 and FIG. 52-FIG. 73.
ENDPOINT LABEL: concentration at 2 h (ng/mL)
Give the number; ng/mL is assumed, so skip it.

Prompt: Provide measured concentration at 2 h value, entry: CCN(C)S(=O)(=O)Nc1ccc(F)c(Oc2ccc3ncn([C@H]4COC5(CCN(C6CC7(C6)CN(c6cc8c(cc6F)c(N6CCC(=O)NC6=O)nn8C)C7)CC5)C4)c(=O)c3c2)c1C#N [Compound 26]
Response: 11600

====

PROCEDURE DETAILS: Pharmacokinetics after 21 days dosing in the efficacy study (plasma, tumor and brain concentrations; plasma AUC at steady state), Example 14
Assay type: in vivo, female BALB/c nude mice
PROTOCOL CONDITIONS: mouse, brain, po; 2 mg/kg p.o. TID x 21 days; 4 h; mean ± SEM; read-out: Concentration in Brain
ENDPOINT LABEL: concentration at 4 h (ng/g)
Unit ng/g implied. Number only.

Prompt: Assign concentration at 4 h to the following record: CCN(C)S(=O)(=O)Nc1ccc(F)c(Oc2ccc3ncn([C@H]4COC5(CCN(C6CC7(C6)CN(c6cc8c(cc6F)c(N6CCC(=O)NC6=O)nn8C)C7)CC5)C4)c(=O)c3c2)c1C#N [Compound 26]
Response: 51.1

====

Tested on: A375-NRAS^Q61K cells
PROCEDURE DETAILS: CTGlo Cell Viability Assay, A375-NRAS^Q61K (A375.11) cells, 96 hours
Assay type: cell-based, human
PROTOCOL CONDITIONS: Homo sapiens, 96 h, A375.11 (A375-NRAS^Q61K) cells
ENDPOINT LABEL: GI50

- COMPOUND: "CCN(C)S(=O)(=O)Nc1ccc(F)c(Oc2ccc3ncn(C4CC5(C4)CN(CC4CN(c6cc7c(cc6F)c(N6CCC(=O)NC6=O)nn7C)C4)C5)c(=O)c3c2)c1C#N"
  RESULT: "< 1000 nM"
- COMPOUND: "CCN(C)S(=O)(=O)Nc1ccc(F)c(Oc2ccc3ncc([C@@H]4COC5(CCN(C6CCC(c7cc8c(cc7F)c(N7CCC(=O)NC7=O)nn8C)CC6F)CC5)C4)nc3c2)c1C#N (single isomer, unassigned)"
  RESULT: "1000 to 10000 nM"

Read the next record carefully.
Prompt: Give A375-NRAS^Q61K cells GI50 for the following compound: CCN(C)S(=O)(=O)Nc1ccc(F)c(C(=O)c2ccc3ncn(C4CC5(CCN(C6CCC(c7ccc(NC8CCC(=O)NC8=O)cc7F)CC6)CC5)C4)c(=O)c3c2)c1F (single isomer, unassigned)
Response: 1000 to 10000 nM

====

PROCEDURE DETAILS: Example 9 pharmacokinetics assay for the PK and PD study Part I, II and III (plasma, tumor, liver)
Format: in vivo, BALB/c nude mice
PROTOCOL CONDITIONS: mouse, tumor, po; 10 mg/kg, p.o., single dose; 12 h; ± SEM; read-out: Mean Concentration in Tumor
Description: For the PK and PD study Part I, agents were administered to BALB/c nude mice bearing A375 human melanoma xenografts tumors. Dabrafenib, Compound 218 and Compound 157 were dosed via p.o. once on day 1. Dabrafenib was dosed at 100 mg/kg. Compound 218 and Compound 157 were dosed at 10 mg/kg. For the PK and PD study Part II, agents were administered to BALB/c nude mice bearing A375 human melanoma xenografts tumors. Compound 133, Compound 144 and Compound 198 were dosed at 10 mg/kg via p.o. once on day 1. […]
Entries and their concentration at 12 h values follow.
Include the unit right after the number.

Check out these entries, answers already filled in.
- COMPOUND: "CCN(C)S(=O)(=O)Nc1ccc(F)c(Oc2ccc3ncn(C4CC5(CCN(C6CC7(CCN(c8cc9c(cc8F)c(N8CCC(=O)NC8=O)nn9C)CC7)C6)CC5)C4)c(=O)c3c2)c1C#N (stereo not drawn)"
  concentration at 12 h: "776 ng/g"
- COMPOUND: "CO[C@@H]1CCN(S(=O)(=O)Nc2ccc(F)c(Oc3ccc4ncn([C@H]5COC6(CCN(C7CC8(C7)CN(c7cc9c(cc7F)c(N7CCC(=O)NC7=O)nn9C)C8)CC6)C5)c(=O)c4c3)c2C#N)C1"
  concentration at 12 h: "616 ng/g"

Now consider the entry below.
Prompt: Please list concentration at 12 h recorded for the compound `Cn1nc(N2CCC(=O)NC2=O)c2cc(F)c(N3CC4(CC(N5CCC6(CC5)C[C@@H](n5cnc7ccc(Oc8c(F)ccc(NS(=O)(=O)N9CC[C@@H](F)C9)c8C#N)cc7c5=O)CO6)C4)C3)cc21`
Response: 316 ng/g
